Data credit: patent US10597388B2

- Test system: foxtail, giant (giant foxtail, Setaria faberii)
- runDescription: Test C greenhouse herbicide test, pre- and postemergence
- Format: in vivo
- conditionParameters: Preemergence, 125 g ai/ha; scale 0 to 100, 0 is no effect, 100 is complete control
Listed here: items and their measured Plant response rating, Foxtail, Giant.
observationType: Plant response rating, Foxtail, Giant

compoundString: COC(=O)Oc1c(C)nn(C)c(=O)c1-c1c(C)sc2ccc(C)cc12
testedSystem: foxtail, giant (giant foxtail, Setaria faberii)
observationType: Plant response rating, Foxtail, Giant
valueReported: 85
//
compoundString: Cc1nn(C)c(=O)c(-c2ccc(Br)c3ccccc23)c1O
testedSystem: foxtail, giant (giant foxtail, Setaria faberii)
observationType: Plant response rating, Foxtail, Giant
valueReported: 70
//
compoundString: CCC(=O)Oc1c(C)nn(C)c(=O)c1-c1ccc(Br)c2ccccc12
testedSystem: foxtail, giant (giant foxtail, Setaria faberii)
observationType: Plant response rating, Foxtail, Giant
valueReported: 70
//
compoundString: Cc1nn(C)c(=O)c(-c2ccc(F)c3ccccc23)c1O
testedSystem: foxtail, giant (giant foxtail, Setaria faberii)
observationType: Plant response rating, Foxtail, Giant
valueReported: 85
//
compoundString: Cc1nn(C)c(=O)c(-c2cccc3ccccc23)c1O
testedSystem: foxtail, giant (giant foxtail, Setaria faberii)
observationType: Plant response rating, Foxtail, Giant
valueReported: 50
//
compoundString: Cc1ccc2ccccc2c1-c1c(O)c(C(F)(F)F)nn(C)c1=O
testedSystem: foxtail, giant (giant foxtail, Setaria faberii)
observationType: Plant response rating, Foxtail, Giant
valueReported: 85
//
compoundString: CC(=O)Oc1c(C)nn(C)c(=O)c1-c1c(C)sc2ccc(C(F)(F)F)cc12
testedSystem: foxtail, giant (giant foxtail, Setaria faberii)
observationType: Plant response rating, Foxtail, Giant
valueReported: 85
//
compoundString: Cc1nn(C)c(=O)c(-c2c(C)sc3ccc(Br)cc23)c1O
testedSystem: foxtail, giant (giant foxtail, Setaria faberii)
observationType: Plant response rating, Foxtail, Giant
valueReported: 55
//
compoundString: Cc1cc(C)c2sc(C)c(-c3c(O)c(C)nn(C)c3=O)c2c1
testedSystem: foxtail, giant (giant foxtail, Setaria faberii)
observationType: Plant response rating, Foxtail, Giant
valueReported: 98

---

- System: chickweed (common chickweed, Stellaria media)
- runDescription: Test D controlled growth environment herbicide test, pre- and postemergence
- Assay type: in vivo
- conditionParameters: Postemergence, 125 g ai/ha; visual rating on scale 0 (no effect) to 100 (complete control), 14 to 21 d

compound: Cc1cc(C)c2sc(C)c(-c3c(O)c(C)nn(C)c3=O)c2c1 [Compound 2]
Plant response rating, Chickweed: 100
//
compound: Cc1ccc2ccccc2c1-c1c(OC(=O)OC(C)C)c(C)nn(C)c1=O [Compound 72]
Plant response rating, Chickweed: 100
//
compound: CC(=O)Oc1c(C)nn(C)c(=O)c1-c1c(C)sc2ccc(Cl)cc12 [Compound 108]
Plant response rating, Chickweed: 100
//
compound: Cc1nn(C)c(=O)c(-c2ccc(F)c3ccccc23)c1O [Compound 41]
Plant response rating, Chickweed: 95
//
compound: Cc1nn(C)c(=O)c(-c2ccc(Br)c3ccccc23)c1O [Compound 75]
Plant response rating, Chickweed: 100
//
compound: Cc1nn(C)c(=O)c(-c2cccc3ccccc23)c1O [Compound 11]
Plant response rating, Chickweed: 80
